subject of test: MAPKAPK2 Recombinant Human Protein (Homo sapiens)
test: MK2 kinase assay (Z'-LYTE kinase assay kit)
condition summary: inhibition of MK2 biochemical activity; 90 min incubation at room temperature
experimental endpoint: IC50

## Task May I ask what IC50 has been recorded for CN(C)C[C@@H]1CCN1C(=O)c1ccc2c(c1)Cn1cc(-c3ccc(C#N)cc3)cc1-c1nccn1-2 [Example 116] ?
## Result < 50 nM

## Task Now consider CN(C)CC(C)(C)NC(=O)c1ccc2c(c1)Cn1cc(-c3ccc(C#N)cc3)cc1-c1nccn1-2 [Example 130] .
## Result 100 to 200 nM

## Task Now consider CN1CCC(NC(=O)c2ccc3c(c2)Cn2cc(-c4ccc(C#N)cc4)cc2-c2nccn2-3)C1 (stereo not shown) [Example 105] .
## Result < 50 nM

## Task Now consider CN(C)C[C@H]1CCCN1C(=O)c1ccc2c(c1)Cn1cc(-c3ccc(C#N)cc3)cc1-c1nccn1-2 [Example 113] .
## Result 200 to 300 nM

----------
Would you mind telling me the reported pIC50 of each entry?
subject of test: MAPKAPK2 Recombinant Human Protein (Homo sapiens, UniProt P49137)
Sequence (P49137 whole entry): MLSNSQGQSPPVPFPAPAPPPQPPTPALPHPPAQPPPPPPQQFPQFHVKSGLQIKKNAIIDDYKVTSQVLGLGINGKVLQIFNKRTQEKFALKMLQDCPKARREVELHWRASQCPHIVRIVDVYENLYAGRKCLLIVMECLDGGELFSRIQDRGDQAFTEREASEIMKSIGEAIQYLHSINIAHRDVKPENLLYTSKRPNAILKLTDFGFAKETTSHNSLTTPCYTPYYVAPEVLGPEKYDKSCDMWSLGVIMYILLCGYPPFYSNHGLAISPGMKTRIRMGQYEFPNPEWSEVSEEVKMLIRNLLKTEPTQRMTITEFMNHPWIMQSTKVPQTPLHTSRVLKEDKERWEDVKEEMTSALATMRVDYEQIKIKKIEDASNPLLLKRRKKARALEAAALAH
test: MK2 kinase assay (Z'-LYTE kinase assay kit)
condition summary: inhibition of MK2 biochemical activity; 90 min incubation at room temperature
pIC50: −log10 of the molar value.

## Task Hi! What's the reported pIC50 for CN(C)C[C@H]1CCN(c2ccc3c(c2)Cn2cc(-c4ccc(C#N)cc4)cc2-c2nccn2-3)C1=O (single isomer, unassigned) [Example 35] on MAPKAPK2 Recombinant Human Protein (Homo sapiens, UniProt P49137)?
## Result > 7.30

## Task Now consider CN(CCO)C[C@H]1CC(=O)N(c2ccc3c(c2)Cn2cc(-c4ccc(C#N)cc4)cc2-c2nccn2-3)C1 [Example 11] .
## Result 7.00 to 7.30

## Task Now consider Cc1nnc2n1-c1ccc(N3C[C@@H](CN(C)C)OC3=O)cc1Cn1cc(-c3ccc(C#N)cc3)cc1-2 [Example 83] .
## Result 7.00 to 7.30

## Task Now consider Cc1nnc2n1-c1ccc(N3CCC(CCN(C)C)C3=O)cc1Cn1cc(-c3ccc(C#N)cc3)cc1-2 (stereo not shown) [Example 81] .
## Result 7.00 to 7.30

## Task Now consider CN(C)C[C@@H]1CCCN1C(=O)c1ccc2c(c1)Cn1cc(-c3ccc(C#N)cc3)cc1-c1nccn1-2 [Example 114] .
## Result 6.70 to 7.00

## Task Now consider CN(C)C[C@H]1CC(=O)N(c2ccc3c(c2)Cn2cc(-c4ccc(C#N)cc4)cc2-c2ncnn2-3)C1 [Example 87] .
## Result > 7.30

## Task Now consider CN(C)[C@H]1C[C@@H](NC(=O)c2ccc3c(c2)Cn2cc(-c4ccc(C#N)cc4)cc2-c2nccn2-3)C1 [Example 127] .
## Result 6.70 to 7.00

## Task Now consider CN(C)CCNC(=O)c1ccc2c(c1)Cn1cc(-c3ccc(C#N)cc3)cc1-c1nccn1-2 [Example 101] .
## Result 7.00 to 7.30

## Task Now consider CN(CC1CNC1)C(=O)c1ccc2c(c1)Cn1cc(-c3ccc(C#N)cc3)cc1-c1nccn1-2 [Example 135] .
## Result 6.70 to 7.00

## Task Now consider N#Cc1ccc(-c2cc3n(c2)Cc2cc(N4C[C@@H](CNC5CC5)CC4=O)ccc2-n2ccnc2-3)cc1 [Example 15] .
## Result > 7.30

## Task Now consider CC(C)(N)C[C@H]1CCN(c2ccc3c(c2)Cn2cc(-c4ccc(C#N)cc4)cc2-c2nccn2-3)C1=O [Example 43] .
## Result > 7.30

## Task Now consider CC(C)N1CC(NC(=O)c2ccc3c(c2)Cn2cc(-c4ccc(C#N)cc4)cc2-c2nccn2-3)C1 [Example 128] .
## Result > 7.30

## Task Now consider CC(C)(N)C1CC(=O)N(c2ccc3c(c2)Cn2cc(-c4ccc(C#N)cc4)cc2-c2nccn2-3)C1 (stereo not shown) [Example 51] .
## Result > 7.30

## Task Now consider CN(C)[C@H]1C[C@@H](N2CCN(c3ccc4c(c3)Cn3cc(-c5ccc(C#N)cc5)cc3-c3nccn3-4)C2=O)C1 [Example 59] .
## Result > 7.30

## Task Now consider CN(C)CC1(C)CCN(c2ccc3c(c2)Cn2cc(-c4ccc(C#N)cc4)cc2-c2nccn2-3)C1=O (stereo not shown) [Example 39] .
## Result 6.70 to 7.00

## Task Now consider CN1CCCC1CNC(=O)c1ccc2c(c1)Cn1cc(-c3ccc(C#N)cc3)cc1-c1nccn1-2 (stereo not shown) [Example 106] .
## Result 6.70 to 7.00

## Task Now consider CN(C)C[C@@H]1CN(c2ccc3c(c2)Cn2cc(-c4ccc(C#N)cc4)cc2-c2nccn2-3)C(=O)O1 [Example 1] .
## Result > 7.30

## Task Now consider CN1CC(CN2C(=O)CN(c3ccc4c(c3)Cn3cc(-c5ccc(C#N)cc5)cc3-c3nccn3-4)C2=O)C1 [Example 67] .
## Result > 7.30

## Task Now consider CN(C)C[C@H]1[C@@H]2CN(c3ccc4c(c3)Cn3cc(-c5ccc(C#N)cc5)cc3-c3nccn3-4)C(=O)[C@H]12 [Example 46] .
## Result > 7.30

## Task Now consider CN[C@H]1CC[C@H](N(C)C(=O)c2ccc3c(c2)Cn2cc(-c4ccc(C#N)cc4)cc2-c2nccn2-3)C1 [Example 133] .
## Result 6.52 to 6.70

## Task Now consider CN1CC2(CCN(c3ccc4c(c3)Cn3cc(-c5ccc(C#N)cc5)cc3-c3nccn3-4)C2=O)C1 [Example 24] .
## Result > 7.30

## Task Now consider CN(C)CCC1CCN(c2ccc3c(c2)Cn2cc(-c4ccc(C#N)cc4)cc2-c2nccn2-3)C1=O (stereo not shown) [Example 40] .
## Result > 7.30

## Task Now consider CN(C)[C@H]1CC[C@H](NC(=O)c2ccc3c(c2)Cn2cc(-c4ccc(C#N)cc4)cc2-c2nccn2-3)C1 [Example 122] .
## Result 6.40 to 6.52

## Task Now consider CN1CC2(CC(=O)N(c3ccc4c(c3)Cn3cc(-c5ccc(C#N)cc5)cc3-c3nccn3-4)C2)C1 [Example 23] .
## Result > 7.30

## Task Now consider CN(C)C[C@@H]1CC(=O)N(c2ccc3c(c2)Cn2cc(-c4ccc(C#N)cc4)cc2-c2nccn2-3)C1 [Example 17] .
## Result 7.00 to 7.30

## Task Now consider CN1CC(N2CCN(c3ccc4c(c3)Cn3cc(-c5ccc(C#N)cc5)cc3-c3nccn3-4)C2=O)C1 [Example 58] .
## Result > 7.30

## Task Now consider CN(C)CCN1C(=O)CN(c2ccc3c(c2)Cn2cc(-c4ccc(C#N)cc4)cc2-c2nccn2-3)C1=O [Example 75] .
## Result > 7.30

## Task Now consider CC(C)(C1CC(=O)N(c2ccc3c(c2)Cn2cc(-c4ccc(C#N)cc4)cc2-c2nccn2-3)C1)N1CCC1 (stereo not shown) [Example 55] .
## Result > 7.30

----------
subject of test: MAPKAPK2 Recombinant Human Protein (Homo sapiens)
test: MK2 kinase assay (Z'-LYTE kinase assay kit)
condition summary: inhibition of MK2 biochemical activity; 90 min incubation at room temperature
experimental endpoint: IC50

## Task May I ask what IC50 has been recorded for CN(C)CC1CCN(C(=O)c2ccc3c(c2)Cn2cc(-c4ccc(C#N)cc4)cc2-c2nccn2-3)C1 (centres unmarked) ?
## Result 50 to 100 nM

## Task Now consider CN(C)C[C@H]1CC(=O)N(c2ccc3c(c2F)Cn2cc(-c4ccc(C#N)cc4)cc2-c2nccn2-3)C1 .
## Result 50 to 100 nM

## Task Now consider N#Cc1ccc(-c2cc3n(c2)Cc2cc(N4C[C@@H](CN5CC(O)C5)CC4=O)ccc2-n2ccnc2-3)cc1 .
## Result < 50 nM

## Task Now consider N#Cc1ccc(-c2cc3n(c2)Cc2cc(N4C[C@@H](CN5CCC(F)C5)CC4=O)ccc2-n2ccnc2-3)cc1 (some centres unmarked) .
## Result 50 to 100 nM

## Task Now consider CC1(C)CCN1C[C@@H]1CN(c2ccc3c(c2)Cn2cc(-c4ccc(C#N)cc4)cc2-c2nccn2-3)C(=O)O1 .
## Result < 50 nM

----------
subject of test: MAPKAPK2 Recombinant Human Protein (Homo sapiens, UniProt P49137)
test: MK2 kinase assay (Z'-LYTE kinase assay kit)
condition summary: inhibition of MK2 biochemical activity; 90 min incubation at room temperature
Would you mind telling me the reported IC50 of each entry?

## Task May I ask what IC50 has been recorded for CN(C)C1CCN(C(=O)c2ccc3c(c2)Cn2cc(-c4ccc(C#N)cc4)cc2-c2nccn2-3)C1 (stereo not drawn) [Example 103] ?
## Result 200 to 300 nM

## Task Now consider CN(C)C[C@@H]1CN(c2ccc3c(c2)Cn2cc(-c4ccc(C#N)cc4)cc2-c2nccn2-3)C(=O)N1C [Example 56] .
## Result 50 to 100 nM

## Task Now consider Cc1nnc2n1-c1ccc(N3CCN(CCN(C)C)C3=O)cc1Cn1cc(-c3ccc(C#N)cc3)cc1-2 [Example 85] .
## Result < 50 nM
